Recorded values, source ChEMBL document CHEMBL4689842.

Test system: HEK-293T
assay-notes: Multiplex assay against HEK293T
Assay type: toxicity, cell-based
measurement-conditions: human, 24 h, 10 µM, compound concentration 10 uM, replicate 1
Categories are defined by ranges of Population Apoptotic (%), namely label 0 (below 20%), label 1 (20% to below 80%), label 2 (80% or more)

Worked examples follow.
compound="COc1cc2ncnc(Nc3ccc(F)c(Cl)c3)c2cc1NC(=O)/C=C/CN1CCCCC1 [DACOMITINIB ANHYDROUS]" tgt=HEK-293T classification="label 0"
compound=CNc1cc(Oc2cc(C(=O)Nc3cc(N4CCN(C)CC4)cc(C(F)(F)F)c3)ccc2C)ncn1 tgt=HEK-293T classification="label 2"
compound=COC(=N)c1nc2ccc3ncnc(Nc4ccc(OC)cc4F)c3c2s1 tgt=HEK-293T classification="label 0"
compound=O=C1NC(=O)C(c2cnc3ccccn23)=C1c1cn2c3c(cc(F)cc13)CN(C(=O)N1CCCCC1)CC2 tgt=HEK-293T classification="label 2"
compound=COc1cc(N2CCN(C)CC2)ccc1Nc1ncc2c(n1)N(C)c1ccccc1C(=O)N2C tgt=HEK-293T classification="label 1"

Turning now to a further compound:
Record CCOC(=O)c1c(C)[nH]c2ccc3c(c12)CN1CCc2cc(OC)ccc2C1O3 (configuration not stated) — which class?
label 2

====

Test system: U2OS
assay-notes: Multiplex assay against U2OS
Type: toxicity, cell-based
measurement-conditions: human, 12 h, 1 µM, compound concentration 1 uM, replicate 2
Here the recorded Population Hoechst High Intensity Objects (%) is given for each entry.
Reply numerically in %, unit not repeated.

molecule=COc1cccc2cc(-c3nc([C@H]4CC[C@H](C(=O)O)CC4)n4ncnc(N)c34)[nH]c12 value_units=% observed=7
molecule=CCCn1c(=O)c2[nH]c(-c3cnn(Cc4cccc(C(F)(F)F)c4)c3)nc2n(CC)c1=O value_units=% observed=2
molecule=CN1CCN(C(=O)C(C)(C)c2ccc(C(=O)Nc3cn4cc(-c5cc(C(C)(C)C)cc(C(C)(C)C)c5)ccc4n3)cc2)CC1 value_units=% observed=11

# return Population Hoechst High Intensity Objects (%) of `Cc1ccc(C(=O)Nc2cccc(C(F)(F)F)c2)cc1Nc1nc(-c2cccnc2)nc2c1cnn2C` (system: U2OS)
3

====

Here the recorded Growth Rate is given for each entry.
System: Fibroblast
assay-notes: Incucyte cell viability with human fibroblast; note: filed as whole numbers so only -1 and 0 and 1 occur
Type: toxicity, cell-based
measurement-conditions: 18 h, 10 µM, compound concentration 10 uM, replicate number 1, timepoint 18 hours

Below, 3 compounds whose answers are already recorded.
compound=CCCc1c(OCCCOc2ccc(OCC(=O)O)cc2)ccc(C(C)=O)c1O parameter="Growth Rate" observed=1
compound=S=C(NCCCc1c[nH]cn1)NCCCN(Cc1ccc(Cl)c(Cl)c1)c1ccc(Br)cn1 parameter="Growth Rate" observed=0
compound=C=C(c1ccc(C(=O)O)cc1)c1cc2c(cc1C)C(C)(C)CCC2(C)C parameter="Growth Rate" observed=1

# return Growth Rate of `FC(F)(F)c1cccc(-c2noc(-c3cc(-c4ccccc4)c(C(F)(F)F)s3)n2)c1` (system: Fibroblast)
1

# return Growth Rate of CC(C)OC(=O)C1=CN(C(=O)c2ccc(F)c(F)c2)CC(C)(C)c2c1[nH]c1ccccc21 [TUROFEXORATE ISOPROPYL] (system: Fibroblast)
0

# return Growth Rate of `Cn1nc(C(F)(F)F)cc1-c1cnc(N2CCc3cc(S(=O)(=O)Nc4c(F)cc(Cl)cc4F)cc(N4CCCC4=O)c32)nc1` (system: Fibroblast)
1

# return Growth Rate of `COc1ccc(-c2ccc3c(N4CCOCC4)nc(N4C[C@@H](C)O[C@@H](C)C4)nc3n2)cc1CO` (system: Fibroblast)
1

====

Tested on: Fibroblast
assay-notes: Multiplex assay against human fibroblast
Type: toxicity, cell-based
measurement-conditions: 48 h, 1 µM, compound concentration 1 uM, replicate 1
parameter: Population Healthy Nuclei (%)
Reply numerically in %, unit not repeated.

Below, 5 molecules whose answers are already recorded.
molecule=O=C1N/C(=N/c2ccccc2F)S/C1=C\c1ccc(C(=O)O)cc1 tgt=Fibroblast observed=46
molecule=CCOc1cc2ncc(C#N)c(Nc3ccc(OCc4ccccn4)c(Cl)c3)c2cc1NC(=O)/C=C/CN(C)C tgt=Fibroblast observed=45
molecule=COc1cc(N2CCN(C)CC2)ccc1Nc1ncc2c(n1)N(C)c1ccccc1C(=O)N2C tgt=Fibroblast observed=58
molecule="CCOC(=O)c1c(C)[nH]c2ccc3c(c12)CN1CCc2cc(OC)ccc2C1O3 (stereo unspecified)" tgt=Fibroblast observed=54
molecule="CN(C)C(=O)C(CCN1CCC(O)(c2ccc(Cl)cc2)CC1)(c1ccccc1)c1ccccc1.Cl [LOPERAMIDE HYDROCHLORIDE]" tgt=Fibroblast observed=46

Give reported Population Healthy Nuclei (%) value for `O=C(Nc1ccc(-n2nc(-c3cccnc3)cc2C(F)(F)F)cn1)c1ccc(-c2ccccc2)c(F)c1`
45

Give reported Population Healthy Nuclei (%) value for `C=C1/C(=C\C=C2/CCC[C@]3(C)[C@@H]([C@H](C)/C=C/[C@H](C)C(C)C)CC[C@@H]23)C[C@@H](O)C[C@@H]1O`
58

Give reported Population Healthy Nuclei (%) value for `Cl.O=c1c2cccn2c2ccccc2n1CCCN1CCC(c2ccc(Cl)cc2)CC1`
36

Give reported Population Healthy Nuclei (%) value for `CCc1cccc(CC)c1NC(=O)c1nn(C)c2c1CCc1cnc(Nc3ccc(C(=O)NC4CCN(C)CC4)cc3OC(F)(F)F)nc1-2`
45

Give reported Population Healthy Nuclei (%) value for `CCOc1cc(C(=O)N2CCC(N3CCN(C)CC3)CC2)ccc1Nc1ncc2c(n1)N(C1CCCC1)c1ccccc1C(=O)N2C`
51

Give reported Population Healthy Nuclei (%) value for `O=C(Nc1ccc(-c2ccnc(Nc3ccc(N4CCOCC4)cc3)n2)cc1)[C@@H]1CCCN1`
60

Give reported Population Healthy Nuclei (%) value for `CCN1CCN(Cc2ccc(Nc3ncc(F)c(-c4cc(F)c5nc(C)n(C(C)C)c5c4)n3)nc2)CC1.CS(=O)(=O)O`
41

Give reported Population Healthy Nuclei (%) value for `O=C(Nc1ccc(Cl)cc1)Nc1cccc(-c2cccc(N3CCCC3)n2)c1`
51

Give reported Population Healthy Nuclei (%) value for CN1CCC(=C2c3ccccc3CC(=O)c3sccc32)CC1.O=C(O)/C=C/C(=O)O [KETOTIFEN FUMARATE]
52

Give reported Population Healthy Nuclei (%) value for `O=C(Cc1ccc(-c2ccc(OCCN3CCOCC3)cc2)cn1)NCc1ccccc1`
47

Give reported Population Healthy Nuclei (%) value for `Cc1cn(-c2cc(NC(=O)c3ccc(C)c(Nc4nccc(-c5cccnc5)n4)c3)cc(C(F)(F)F)c2)cn1`
40

====

Here the recorded Total Cell Count is given for each entry.
Tested on: U2OS
assay-notes: Multiplex assay against U2OS
Assay type: toxicity, cell-based
measurement-conditions: human, 24 h, 1 µM, compound concentration 1 uM, replicate 2
Could you respond with only the numeric value?

Below, 3 compounds whose answers are already recorded.
molecule=COc1cccc2cc(-c3nc([C@H]4CC[C@H](C(=O)O)CC4)n4ncnc(N)c34)[nH]c12 observed=144
molecule=Cl.O=C(c1ccc(Nc2nccc(-c3cc4ccccc4s3)n2)cc1)N1CCC(N2CCCC2)CC1 observed=97
molecule=C=C1/C(=C\C=C2/CCC[C@]3(C)[C@@H]([C@H](C)/C=C/[C@H](C)C(C)C)CC[C@@H]23)C[C@@H](O)C[C@@H]1O observed=157

Give reported Total Cell Count value for `CCCS(=O)(=O)c1nc(NC2CC2)cc(-c2ccc3c(ccn3C3CC(C)(C)NC(C)(C)C3)c2)n1`
1113

Give reported Total Cell Count value for `O=C1NC(=O)C(c2cnc3ccccn23)=C1c1cn2c3c(cc(F)cc13)CN(C(=O)N1CCCCC1)CC2`
82

Give reported Total Cell Count value for `CCOc1cc(C(=O)N2CCC(N3CCN(C)CC3)CC2)ccc1Nc1ncc2c(n1)N(C1CCCC1)c1ccccc1C(=O)N2C`
71

Give reported Total Cell Count value for `Cc1ccc(C(=O)Nc2cccc(C(F)(F)F)c2)cc1Nc1nc(-c2cccnc2)nc2c1cnn2C`
101

Give reported Total Cell Count value for `CCc1cccc(CC)c1NC(=O)c1nn(C)c2c1CCc1cnc(Nc3ccc(C(=O)NC4CCN(C)CC4)cc3OC(F)(F)F)nc1-2`
53

====

Here the recorded Population Apoptotic (%) is given for each entry.
Test system: HEK-293T
assay-notes: Multiplex assay against HEK293T
Type: toxicity, cell-based
measurement-conditions: human, 12 h, 10 µM, compound concentration 10 uM, replicate 1
Reply numerically in %, unit not repeated.

Below, 2 compounds whose answers are already recorded.
compound="COc1cccc2cc(-c3nc([C@H]4CC[C@H](C(=O)O)CC4)n4ncnc(N)c34)[nH]c12 [OSI-027]" value_units=% observed=23
compound=CCOc1cc(C(=O)N2CCC(N3CCN(C)CC3)CC2)ccc1Nc1ncc2c(n1)N(C1CCCC1)c1ccccc1C(=O)N2C value_units=% observed=83

Turning to the following compound.
Give reported Population Apoptotic (%) value for O=C(Cc1ccc(-c2ccc(OCCN3CCOCC3)cc2)cn1)NCc1ccccc1 [TIRBANIBULIN]
52
